src = PubChem BioAssay (Tox21)

- RUN_DESCRIPTION: Caspase-3/7 induction in CHO-K1 cells by small molecules, qHTS cell viability counter screen (AID 1346979); also: nearly all actives have a fitted effect of over 35% in size
- STATED_CONDITIONS: CellTiter-Fluor fluorescence, 17 h; series mostly up to 92.4 µM
- Description: National Center for Advancing Translational Sciences [NCATS] NIH Chemical Genomics Center [NCGC] U.S. Environmental Protection Agency [EPA] National Institutes of Environmental Health Sciences [NIEHS] National Toxicology Program [NTP] U.S. Food and Drug Administration [FDA] Apoptosis is a process of programmed cell death and plays a central role in the development of multicellular organisms. […]
Results filed as inconclusive are left out. Active and inactive are the calls of the source. Calls follow the shape of the dose curve; as a rule, active = well fitted cell-killing curve with a large enough effect in the repeat runs; inconclusive = weak or mixed curves, or effect the other way; inactive = no such curve, though single readings can be large or run the other way.
Possible outcomes: t for active, f for inactive

INSERT INTO assay_data (compound, category_label) VALUES
  ('CCC1(CC)C(=O)NC(=O)NC1=O', 'f'),
  ('CON(C)C(=O)Nc1ccc(Cl)cc1', 'f'),
  ('O=C=NC1CCCCC1', 'f'),
  ('Cc1cnc(C2=NC(C)(C(C)C)C(=O)N2)c(C(=O)O)c1 (stereo not drawn)', 'f'),
  ('O=C(O)CCCOc1ccc(Cl)cc1Cl', 'f'),
  ('Nc1cccc2ccccc12', 'f'),
  ('O=C(Cc1ccccc1)c1ccccc1', 'f'),
  ('Clc1ccccc1', 't'),
  ('C[C@H]1O[C@H](OC2[C@@H](O)[C@@H](O)C(O)[C@H](O)[C@H]2O)[C@@H](N)C[C@@H]1N=C(N)C(=O)O (stereo partly drawn)', 'f'),
  ('O=C([O-])c1ccccn1.O=C([O-])c1ccccn1.O=C([O-])c1ccccn1.[Cr+3]', 'f'),
  ('C=CC(=O)NC(C)(C)CC(C)=O', 'f'),
  ('CN(C1CCCCC1)C1CCCCC1', 'f'),
  ('OCCSSCCO', 'f'),
  ('Cc1nnc(-c2ccccc2)c(=O)n1N', 'f'),
  ('CCC(=O)O[C@@H]1C=C2CCC3C(CCC4(C)C3CC[C@@H]4OC(=O)CC)C2CC1 (stereo partly drawn)', 'f'),
  ('Nc1c(Br)cc(Br)c2c1C(=O)c1ccccc1C2=O', 't'),
  ('CC(C)[C@@H](C(=O)O[C@@H](C#N)c1cccc(Oc2ccccc2)c1)c1ccc(Cl)cc1', 't'),
  ('O=C(O)C(F)(F)C(F)(F)C(F)(F)C(F)(F)C(F)(F)C(F)(F)C(F)(F)C(F)(F)F', 'f'),
  ('O=C(O)c1cc(I)cc(I)c1I', 'f'),
  ('CCC1CCC(=O)O1 (stereo not drawn)', 'f'),
  ('O=C(N/N=C/c1ccc([N+](=O)[O-])o1)c1cc([N+](=O)[O-])cc([N+](=O)[O-])c1O', 't'),
  ('OC[P+](CO)(CO)CO', 'f'),
  ('CCCC1CCCCN1 (stereo not drawn)', 'f'),
  ('OCCCl', 'f'),
  ('CC1(C)CC(=O)CC(C)(C)N1[O]', 'f'),
  ('CCC[N+](CCC)(CCC)CCC', 'f'),
  ('C=CCc1ccc(OC(=O)Cc2ccccc2)c(OC)c1', 'f'),
  ('Nc1ccc2c(c1)Cc1ccccc1-2', 'f');

---

- RUN_DESCRIPTION: qHTS assay to identify small molecule agonists of the hypoxia (HIF-1) signaling pathway (AID 1224846)
- STATED_CONDITIONS: HRE-bla ME-180 cells, beta-lactamase ratio, 17 h; series mostly up to 76.8 µM
Results filed as inconclusive are left out. Activity calls are given as the source filed them. Calls come from the whole dose curve; as a rule, active = well fitted activation curve with a large enough effect in the signal ratio in the repeat runs (not every such curve was filed as active); inconclusive = weak or mixed curves; inactive = flat fitted curve, though single readings scatter; the % refers to the signal ratio.
TEST_READOUT: activation

INSERT INTO results (compound, test_readout, observed) VALUES
  ('OCCCl', 'activation', 'inactive'),
  ('CCCC[N+](CCCC)(CCCC)CCCC', 'activation', 'inactive'),
  ('O=C(O)c1cc(I)cc(I)c1I', 'activation', 'inactive'),
  ('C[C@]12C=CC3=C4CCC(=O)C=C4CC[C@H]3[C@@H]1CC[C@@H]2O', 'activation', 'inactive'),
  ('OCCSSCCO', 'activation', 'inactive'),
  ('C=CCc1ccccc1O', 'activation', 'inactive'),
  ('CCCN(CCOc1c(Cl)cc(Cl)cc1Cl)C(=O)n1ccnc1', 'activation', 'inactive'),
  ('CCC1(CC)C(=O)NC(=O)NC1=O', 'activation', 'inactive'),
  ('CC(C)CCCCCCCOC(=O)c1ccccc1C(=O)OCCCCCCCC(C)C', 'activation', 'inactive'),
  ('CCCC[P+](CC)(CCCC)CCCC (tested in a mixture with another compound)', 'activation', 'inactive'),
  ('CC(Oc1cccc(Cl)c1)C(=O)O (stereo not drawn)', 'activation', 'inactive'),
  ('Cc1ccc(N)c(C)c1', 'activation', 'inactive'),
  ('O=C(O)C(Cl)(Cl)Br', 'activation', 'inactive'),
  ('CCSCc1ccccc1OC(=O)NC', 'activation', 'inactive'),
  ('CCNC(=O)NC(=O)/C(C#N)=N/OC', 'activation', 'inactive'),
  ('O=C(O)CCCOc1ccc(Cl)cc1Cl', 'activation', 'inactive'),
  ('CC[N+]1(CCOC(=O)C(O)(c2ccccc2)c2ccccc2)CCCCC1', 'activation', 'inactive'),
  ('Clc1ccc(Cl)c(Cl)c1', 'activation', 'inactive'),
  ('CCCCC#N', 'activation', 'inactive'),
  ('CCCCCBr', 'activation', 'inactive'),
  ('O=C(Cc1ccccc1)c1ccccc1', 'activation', 'inactive'),
  ('Cc1ccc2c(C)cccc2c1', 'activation', 'inactive'),
  ('c1ccc2c(c1)sc1ccccc12', 'activation', 'inactive'),
  ('COc1cc(CC(C)N)c(OC)cc1Br (stereo not drawn)', 'activation', 'inactive'),
  ('CN(C1CCCCC1)C1CCCCC1', 'activation', 'inactive'),
  ('O=C(Cc1ccccc1)OCCc1ccccc1', 'activation', 'inactive'),
  ('CCC(C)Cl (stereo not drawn)', 'activation', 'inactive'),
  ('OC[P+](CO)(CO)CO', 'activation', 'inactive'),
  ('Nc1ccccc1C(=O)OCC(O)CO (stereo not drawn)', 'activation', 'inactive'),
  ('CCCBr', 'activation', 'inactive'),
  ('O=[N+]([O-])c1cc(Cl)c(Cl)cc1Cl', 'activation', 'inactive'),
  ('CCOC(=O)C1OC1(C)c1ccccc1 (stereo not drawn)', 'activation', 'inactive'),
  ('C=CCc1ccc(OC(=O)Cc2ccccc2)c(OC)c1', 'activation', 'inactive'),
  ('CC(CC(C(N)=O)(c1ccccc1)c1ccccc1)N(C)C (stereo not drawn)', 'activation', 'inactive'),
  ('CC(C)CCON=O', 'activation', 'inactive'),
  ('Cc1nnc(-c2ccccc2)c(=O)n1N', 'activation', 'inactive'),
  ('C#CC(O)(C=CCl)CC (stereo not drawn)', 'activation', 'inactive'),
  ('FC(F)OC(F)(F)C(F)Cl (stereo not drawn)', 'activation', 'inactive'),
  ('O=C=NC1CCCCC1', 'activation', 'inactive'),
  ('CN(C)N', 'activation', 'inactive'),
  ('CC1(C)CC(=O)CC(C)(C)N1[O]', 'activation', 'inactive'),
  ('CC(=O)OC(c1ccccc1)C(Cl)(Cl)Cl (stereo not drawn)', 'activation', 'inactive'),
  ('CCOC(C(=O)OCCN(C)C)(c1ccccc1)c1ccccc1', 'activation', 'inactive'),
  ('CCCCC(CC)COC(=O)c1c(Br)c(Br)c(Br)c(Br)c1C(=O)OCC(CC)CCCC (stereo not drawn)', 'activation', 'inactive'),
  ('CCC[N+](CCC)(CCC)CCC', 'activation', 'inactive'),
  ('N#CC1(N=NC2(C#N)CCCCC2)CCCCC1', 'activation', 'inactive'),
  ('CN1CC[C@]23c4c5ccc(O)c4O[C@H]2[C@@H](O)C=C[C@H]3[C@H]1C5', 'activation', 'inactive'),
  ('c1ccc2sc(SNC3CCCCC3)nc2c1', 'activation', 'inactive'),
  ('CCC(=O)O[C@@H]1C=C2CCC3C(CCC4(C)C3CC[C@@H]4OC(=O)CC)C2CC1 (stereo partly drawn)', 'activation', 'inactive'),
  ('Cc1nc(N(C)C)nc(OC(=O)N(C)C)c1C', 'activation', 'inactive'),
  ('CC(C)(C)NCC(O)c1ccccc1Cl (stereo not drawn)', 'activation', 'inactive'),
  ('C[C@H]1O[C@H](OC2[C@@H](O)[C@@H](O)C(O)[C@H](O)[C@H]2O)[C@@H](N)C[C@@H]1N=C(N)C(=O)O (stereo partly drawn)', 'activation', 'inactive'),
  ('NNCCO', 'activation', 'inactive'),
  ('O=C([O-])c1ccccn1.O=C([O-])c1ccccn1.O=C([O-])c1ccccn1.[Cr+3]', 'activation', 'inactive'),
  ('COC(=O)Cc1ccccc1', 'activation', 'inactive'),
  ('CC(C)(c1ccccc1)c1cc(-n2nc3ccccc3n2)c(O)c(C(C)(C)c2ccccc2)c1', 'activation', 'inactive'),
  ('c1ccc2c(c1)-c1cccc3cccc-2c13', 'activation', 'inactive'),
  ('C[N+]1(CCC(C(N)=O)(c2ccccc2)c2ccccc2)CCCCC1', 'activation', 'inactive');
